All figures here come from ChEMBL document CHEMBL1795251.

- Measurement protocol: Plasma protein binding in rat
- Format: ADME, cell-free
- Conditions: read-out: PPB (converted)

Compound structure	fraction unbound
CNC(=O)c1ccc2c(c1)OCCc1cc(C(=O)N(C)c3ccc(C(=O)N(C)C)cc3Cl)sc1-2	0.03

* * *

- Measurement protocol: in vivo
- Conditions: nude, mouse, tumor, po, 50 mg/kg
Metric name: concentration at 6 h (nM)

Compound structure	Val
CNC(=O)c1ccc2c(c1)OCCc1cc(C(=O)N(C)c3ccc(C(=O)N(C)C)cc3Cl)sc1-2	2240

* * *

Attribute: pKi
- Tested on: Phosphatidylinositol 4,5-bisphosphate 3-kinase catalytic subunit alpha isoform (Homo sapiens, UniProt P42336)
- Sequence (P42336 whole entry, canonical isoform): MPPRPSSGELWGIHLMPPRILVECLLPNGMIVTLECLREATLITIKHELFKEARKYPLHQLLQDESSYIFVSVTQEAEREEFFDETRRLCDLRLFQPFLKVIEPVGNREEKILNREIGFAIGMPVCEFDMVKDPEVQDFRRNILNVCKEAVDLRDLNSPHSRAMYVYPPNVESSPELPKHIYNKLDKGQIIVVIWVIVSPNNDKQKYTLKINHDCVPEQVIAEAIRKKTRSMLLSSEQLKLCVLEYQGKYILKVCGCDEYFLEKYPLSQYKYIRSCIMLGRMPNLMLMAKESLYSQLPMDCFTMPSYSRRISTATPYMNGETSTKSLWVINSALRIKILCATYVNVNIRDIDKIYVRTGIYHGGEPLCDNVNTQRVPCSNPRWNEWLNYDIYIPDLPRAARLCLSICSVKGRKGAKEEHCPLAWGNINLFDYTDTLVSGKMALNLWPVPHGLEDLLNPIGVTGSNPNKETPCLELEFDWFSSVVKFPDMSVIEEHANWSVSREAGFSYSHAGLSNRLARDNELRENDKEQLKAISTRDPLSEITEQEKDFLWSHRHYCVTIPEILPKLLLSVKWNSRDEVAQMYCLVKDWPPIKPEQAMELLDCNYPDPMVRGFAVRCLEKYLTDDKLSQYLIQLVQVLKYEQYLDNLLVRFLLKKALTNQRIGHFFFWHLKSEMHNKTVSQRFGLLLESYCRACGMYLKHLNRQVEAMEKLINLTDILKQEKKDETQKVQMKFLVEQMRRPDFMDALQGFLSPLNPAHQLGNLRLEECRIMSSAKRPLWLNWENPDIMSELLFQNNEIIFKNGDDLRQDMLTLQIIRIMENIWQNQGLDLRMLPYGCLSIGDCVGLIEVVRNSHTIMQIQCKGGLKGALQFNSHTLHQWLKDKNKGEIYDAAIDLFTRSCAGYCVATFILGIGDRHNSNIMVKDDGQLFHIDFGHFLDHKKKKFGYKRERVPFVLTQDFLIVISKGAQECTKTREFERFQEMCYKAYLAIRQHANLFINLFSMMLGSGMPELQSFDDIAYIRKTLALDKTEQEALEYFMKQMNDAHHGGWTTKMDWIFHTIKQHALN
pKi: −log10 of the molar value.
Metric name: pKi

Compound structure	Val
CN(C(=O)c1cc2c(s1)-c1ccc(-c3cn[nH]c3)cc1OCC2)c1ccncc1Cl	7.19
CN(C(=O)c1cc2c(s1)-c1ccc(C(N)=O)cc1OCC2)c1ccccc1Cl	8.92
COC(=O)Nc1ccc2c(c1)OCCc1cc(C(=O)N(C)c3ccccc3Cl)sc1-2	8.82
CNC(=O)c1ccc(N(C)C(=O)c2cc3c(s2)-c2ccc(C(=O)NC)cc2OCC3)c(Cl)c1	8.60
CN(C(=O)c1cc2c(s1)-c1ccccc1OCC2)c1ccncc1Cl	6.33
CN(C(=O)c1cc2c(s1)-c1ccc(-c3cn[nH]c3)cc1OCC2)c1ccccc1Cl	9.22
CN(C(=O)c1cc2c(s1)-c1ccc(C(=O)N3CCOCC3)cc1OCC2)c1ccccc1Cl	7.51
